# measured_target: Epidermal growth factor receptor (Homo sapiens)
# test_context: at 0.1 µM
# Description: GSK_PKIS: EGFR mean inhibition at 0.1 uM [Nanosyn]
measured_property: inhibition (%)

{"columns": ["smiles_representation", "readout_units", "readout_number"],
 "data": [
  ["c1ccc(-c2n[nH]cc2-c2ccnc(-c3ccc(OCCN4CCOCC4)cc3)c2)nc1", "%", 3.33],
  ["NS(=O)(=O)c1ccc(Nc2cc(-c3ccc(O)c(F)c3)n[nH]2)cc1", "%", 0.49],
  ["CNC(=O)c1cncc(/C=C/c2c(C)cccc2C)c1", "%", -2.83],
  ["c1ccc(Oc2ccc(Nc3ncc(-c4ccccc4)o3)cc2)cc1", "%", 1.92],
  ["CS(=O)(=O)CCNCc1ccc(-c2ccc3ncnc(Nc4ccc(OCc5ccccc5)c(Br)c4)c3c2)o1", "%", 69.5],
  ["Fc1ccc(-c2nc3n(c2-c2ccncc2)CCS3)cc1", "%", 0.92],
  ["CCc1cccc(CC)c1/C=C/c1cncc(C(=O)NC)c1", "%", 3.24],
  ["CCS(=O)(=O)c1ccc(OC)c(Nc2ncc(-c3ccccc3Cl)o2)c1", "%", -0.49],
  ["O=C(Nc1n[nH]c2cc(-c3ccccc3)ccc12)C1CC1", "%", 3.06],
  ["C[C@@H](Oc1cc(-n2cnc3ccc(OCC4CCN(C)CC4)cc32)sc1C(N)=O)c1ccccc1Cl", "%", 3.04]
]}

* * *

# measured_target: Tyrosine-protein kinase ABL2 (Homo sapiens);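 also: values are mean percent inhibition of ARG (ABL2), measured within the GSK PKIS set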
# test_context: at 0.1 µM
inhibition values, listed per item

{"columns": ["smiles_representation", "measured_target", "inhibition (%)"],
 "data": [
  ["CN(C)c1ccc2c(c1)/C(=C/Nc1ccc(S(N)(=O)=O)cc1)C(=O)N2", "Tyrosine-protein kinase ABL2 (Homo sapiens)", 2.83],
  ["Clc1ccc(CNc2nccc(-c3cnn4ncccc34)n2)cc1", "Tyrosine-protein kinase ABL2 (Homo sapiens)", 3.17],
  ["COc1cccc(/C=N/Nc2ncnc3c2cnn3-c2cccc(OC)c2)c1", "Tyrosine-protein kinase ABL2 (Homo sapiens)", 2.78],
  ["C/C(Nc1ccc(S(N)(=O)=O)cc1)=C1/C(=O)Nc2ccccc21", "Tyrosine-protein kinase ABL2 (Homo sapiens)", -0.23],
  ["Cc1ccc(C(=O)NC(C)C)cc1-c1ccc(C(=O)NCC2CC2)cc1", "Tyrosine-protein kinase ABL2 (Homo sapiens)", -2.09],
  ["C[C@@H](Oc1cc(-n2cnc3ccc(OCC4CCN(C)CC4)cc32)sc1C(N)=O)c1ccccc1Cl", "Tyrosine-protein kinase ABL2 (Homo sapiens)", 8.53],
  ["c1ccc(-c2n[nH]cc2-c2ccnc(-c3ccc(OCCN4CCOCC4)cc3)c2)nc1", "Tyrosine-protein kinase ABL2 (Homo sapiens)", 5.43],
  ["COc1cc(C)c(N(C)C(=O)CN(C)C)cc1Nc1nc(Nc2cccc(F)c2C(N)=O)c2cc[nH]c2n1", "Tyrosine-protein kinase ABL2 (Homo sapiens)", -2.32],
  ["c1ccc(Oc2ccc(Nc3ncc(-c4ccccc4)o3)cc2)cc1", "Tyrosine-protein kinase ABL2 (Homo sapiens)", 1.49],
  ["CN(C)CCCNc1nccc(-c2c(-c3ccc(F)cc3)nn3cc(C(F)(F)F)ccc23)n1", "Tyrosine-protein kinase ABL2 (Homo sapiens)", 2.2]
]}

* * *

# measured_target: Receptor tyrosine-protein kinase erbB-2 (Homo sapiens)
# test_context: at 1 µM
# Description: GSK_PKIS: ERBB2 mean inhibition at 1 uM [Nanosyn]
Reported inhibition values for a set of molecules
measured_property: inhibition

{"columns": ["molecule", "result"],
 "data": [
  ["COc1ccc2ncn(-c3cc(O[C@H](C)c4ccccc4Cl)c(C(N)=O)s3)c2c1", "2.8%"],
  ["NC(=O)c1cc(-c2ccc(F)cc2)cc(-c2ccncc2)c1N", "4.97%"],
  ["O=C(Nc1n[nH]c2cc(-c3ccccc3)ccc12)C1CC1", "1.33%"],
  ["CNC(=O)c1cncc(/C=C/c2c(C)cccc2C)c1", "1.84%"],
  ["COc1cc2ncn(-c3cc(OCCc4ccccc4)c(C(N)=O)s3)c2cc1OC", "2.47%"],
  ["COC(=O)Nc1nc2ccc(Sc3ccc(NC(=O)Nc4cc(C(F)(F)F)ccc4F)cc3)cc2[nH]1", "1.41%"],
  ["CCc1nccc2c1nc(-c1nonc1N)n2CC", "-3.91%"],
  ["Cc1ccc(C(=O)NC(C)C)cc1-c1ccc(C(=O)NCC2CC2)cc1", "-4.79%"],
  ["NC(=O)c1cc(-c2ccncc2)cc(-c2ccccc2)c1N", "8.53%"],
  ["O=C(Nc1n[nH]c2nc(-c3ccco3)ccc12)C1CC1", "0.71%"],
  ["COc1ccc2cc(-c3c(-c4ccncc4)nc(-c4ccc([S+](C)[O-])cc4C)n3C)ccc2c1 (stereo not drawn)", "5.05%"],
  ["c1ccc(-c2n[nH]cc2-c2ccnc(-c3ccc(OCCN4CCOCC4)cc3)c2)nc1", "-4.37%"],
  ["COc1cccc(/C=N/Nc2ncnc3c2cnn3-c2cccc(OC)c2)c1", "5.67%"]
]}
